Origin of values: patent US9914735B2

Target: FLT3 (Homo sapiens (Human))
Sequence (P36888 27-993): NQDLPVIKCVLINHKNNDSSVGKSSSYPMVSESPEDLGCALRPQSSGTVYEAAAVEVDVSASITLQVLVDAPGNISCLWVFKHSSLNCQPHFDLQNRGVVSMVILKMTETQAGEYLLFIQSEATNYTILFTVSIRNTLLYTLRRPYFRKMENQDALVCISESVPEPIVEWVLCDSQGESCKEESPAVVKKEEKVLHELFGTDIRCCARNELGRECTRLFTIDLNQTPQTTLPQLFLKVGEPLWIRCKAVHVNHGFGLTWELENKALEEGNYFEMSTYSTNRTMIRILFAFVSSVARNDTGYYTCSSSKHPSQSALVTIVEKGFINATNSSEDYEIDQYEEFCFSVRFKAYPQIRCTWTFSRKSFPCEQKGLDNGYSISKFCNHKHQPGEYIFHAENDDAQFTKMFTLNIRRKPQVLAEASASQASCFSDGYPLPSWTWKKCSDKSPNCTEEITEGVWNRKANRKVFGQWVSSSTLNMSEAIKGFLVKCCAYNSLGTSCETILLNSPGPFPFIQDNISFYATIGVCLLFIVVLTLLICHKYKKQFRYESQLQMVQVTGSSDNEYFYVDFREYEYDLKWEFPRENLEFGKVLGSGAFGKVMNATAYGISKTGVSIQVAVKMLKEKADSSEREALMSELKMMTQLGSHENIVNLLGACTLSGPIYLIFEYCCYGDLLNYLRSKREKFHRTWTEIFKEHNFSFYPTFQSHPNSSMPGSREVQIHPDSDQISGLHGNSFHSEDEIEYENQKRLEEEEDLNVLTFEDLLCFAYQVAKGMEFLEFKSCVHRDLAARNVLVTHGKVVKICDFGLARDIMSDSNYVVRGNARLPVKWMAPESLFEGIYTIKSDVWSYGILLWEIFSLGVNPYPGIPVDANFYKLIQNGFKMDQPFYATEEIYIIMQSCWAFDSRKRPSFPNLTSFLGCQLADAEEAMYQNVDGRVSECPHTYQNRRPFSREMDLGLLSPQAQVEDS
Test: FLT3 kinase test (Z'-LYTE)
Type: biochemical
Settings: read-out: IC50 in μM (FLT3-Inhibition)
Method: The activity of FLT3 is measured using the Z′-LYTETM assay technology from Invitrogen (#PV3191) The reaction is started by addition of 2.5 μl of the 4×ATP solution. Positive controls are reaction mixtures containing no test compound; negative controls (blanks) are reaction mixtures containing no kinase. […] The output text file is evaluated in an “MS-Excel—VB-Makro” and “GraphPadPrism” (Version 5) (GraphPad Software Inc.) is used to calculate the results. […]
endpoint-label: IC50 (µM)

mol-smiles | test-value
C[C@@H](Oc1cc(-c2ccc3c(c2)c(N)nn3C)cc2nn(C)cc12)[C@H]1CNC(=O)C1 | 2.39
COc1cc(-c2cc3ncccc3c(O[C@H](C)[C@H]3CNC(=O)C3)n2)cc(OC)c1OC | 1.18
C[C@@H](Oc1cc(-c2ccc3cnn(C)c3c2)cc2ncccc12)[C@H]1CNC(=O)C1 | 0.618
C[C@@H](Oc1nc(-c2ccc3cnn(C)c3c2)cc2nn(C)cc12)[C@H]1CNC(=O)C1 | 19.6
COc1ccc(-c2cc3nn(C)cc3c(O[C@H](C)[C@H]3CNC(=O)C3)n2)cc1OC | 3.99

I: COc1cc(-c2cc3ncccc3c(O[C@H](C)[C@H]3CNC(=O)C3)n2)ccc1OC(F)(F)F
II: C[C@@H](Oc1nc(-c2ccc(C(F)(F)F)nc2)cc2nn(C)cc12)[C@H]1CNC(=O)C1
Between the entries labelled I and II , which has a larger IC50 value on record? Answer with the label corresponding to your selection.
II

I: C[C@@H](Oc1cc(-c2ccc(C(=O)N3CCN(C)CC3)cc2)cc2ncccc12)[C@H]1CNC(=O)C1
II: COc1cc(-c2cc3nn(C)cc3c(O[C@H](C)[C@H]3CNC(=O)C3)n2)ccc1O
III: C[C@@H](Oc1nc(-c2ccc(N3CCN(C)CC3)cc2)cc2nn(C)cc12)[C@H]1CNC(=O)C1
IV: C[C@@H](Oc1cc(-c2ccc(N3CCN(C)CC3)cc2)cc2nn(C)cc12)[C@H]1CNC(=O)C1
Please rank these compounds by IC50 in descending order. Returns: the labels listed in the requested order.
II, III, IV, I
(II: 13.5 µM, III: 1.68 µM, IV: 0.95 µM, I: 0.169 µM)

---

target: Recombinant human Aurora B (amino acids 1-344) (Homo sapiens (Human)); test: Aurora B kinase test (ADP Glo luminescence); type: biochemical; settings: Table 1; read-out: AURB-inhibition IC50-value
endpoint-label: IC50

Sample records with IC50:
compound | target-of-assay | IC50
C[C@@H](Oc1nc(-c2ccc(C(F)(F)F)cc2)cc2nn(C)cc12)[C@H]1CNC(=O)C1 [Example 60] | Recombinant human Aurora B (amino acids 1-344) (Homo sapiens (Human)) | 34.7 µM
C[C@@H](Oc1cc(-c2ccc(N3CCCS3(=O)=O)cc2)cc2nn(C)cc12)[C@H]1CNC(=O)C1 [Example 33] | Recombinant human Aurora B (amino acids 1-344) (Homo sapiens (Human)) | > 50 µM
C[C@@H](Oc1nc(-c2cnn(C(C)(C)C)c2)cc2nn(C)cc12)[C@H]1CNC(=O)C1 [Example 2] | Recombinant human Aurora B (amino acids 1-344) (Homo sapiens (Human)) | > 50 µM
COc1ccc(-c2cc3nn(C)cc3c(O[C@H](C)[C@H]3CNC(=O)C3)n2)cc1OC [Example 1] | Recombinant human Aurora B (amino acids 1-344) (Homo sapiens (Human)) | > 50 µM
C[C@@H](Oc1cc(-c2cnn(C3CCOCC3)c2)cc2nn(C)cc12)[C@H]1CNC(=O)C1 [Example 47] | Recombinant human Aurora B (amino acids 1-344) (Homo sapiens (Human)) | 26 µM

Retrieve IC50 on Recombinant human Aurora B (amino acids 1-344) (Homo sapiens (Human)); query C[C@@H](Oc1cc(-c2cnn(C(F)F)c2)cc2nn(C)cc12)[C@H]1CNC(=O)C1 [Example 40]
31.4 µM

Retrieve IC50 on Recombinant human Aurora B (amino acids 1-344) (Homo sapiens (Human)); query COc1ccc(-c2cc3nn(C)cc3c(O[C@H](C)[C@H]3CNC(=O)C3)n2)cn1 [Example 59]
> 50 µM

Retrieve IC50 on Recombinant human Aurora B (amino acids 1-344) (Homo sapiens (Human)); query C[C@@H](Oc1cc(-c2ccc(F)cn2)cc2nn(C)cc12)[C@H]1CNC(=O)C1 [Example 41]
> 50 µM

Retrieve IC50 on Recombinant human Aurora B (amino acids 1-344) (Homo sapiens (Human)); query C[C@@H](Oc1nc(-c2ccc(C3CC3)nc2)cc2nn(C)cc12)[C@H]1CNC(=O)C1 [Example 50]
48 µM

Retrieve IC50 on Recombinant human Aurora B (amino acids 1-344) (Homo sapiens (Human)); query COc1cc(-c2cc3nn(C)cc3c(O[C@H](C)[C@H]3CNC(=O)C3)n2)cc(OC)c1OC [Example 52]
> 50 µM

Retrieve IC50 on Recombinant human Aurora B (amino acids 1-344) (Homo sapiens (Human)); query C[C@@H](Oc1nc(-c2ccc3cnn(C)c3c2)cc2nn(C)cc12)[C@H]1CNC(=O)C1 [Example 72]
> 50 µM

Retrieve IC50 on Recombinant human Aurora B (amino acids 1-344) (Homo sapiens (Human)); query CCn1cc(-c2cc3nn(C)cc3c(O[C@H](C)[C@H]3CNC(=O)C3)n2)cn1 [Example 58]
> 50 µM

Retrieve IC50 on Recombinant human Aurora B (amino acids 1-344) (Homo sapiens (Human)); query C[C@@H](Oc1nc(-c2cnn(C3CC3)c2)cc2nn(C)cc12)[C@H]1CNC(=O)C1 [Example 78]
> 50 µM

Retrieve IC50 on Recombinant human Aurora B (amino acids 1-344) (Homo sapiens (Human)); query C[C@@H](Oc1nc(-c2ccc(C(F)F)nc2)cc2nn(C)cc12)[C@H]1CNC(=O)C1 [Example 51]
49.8 µM

Retrieve IC50 on Recombinant human Aurora B (amino acids 1-344) (Homo sapiens (Human)); query COc1cc(-c2cc3nn(C)cc3c(O[C@H](C)[C@H]3CNC(=O)C3)n2)ccc1OC(C)C [Example 81]
48.4 µM

---

Listed here are compounds together with their documented IC50.
biological target: Recombinant human Aurora B (amino acids 1-344) (Homo sapiens (Human)); experiment: Aurora B kinase test (ADP Glo luminescence); type: biochemical; conditions: Table 1; read-out: AURB-inhibition IC50-value

Sample records with IC50:
compound | IC50
C[C@@H](Oc1nc(-c2ccc(N3CCN(C)CC3)cc2)cc2nn(C)cc12)[C@H]1CNC(=O)C1 [Example 67] | > 50 µM
C[C@@H](Oc1cc(-c2ccc3c(c2)c(N)nn3C)cc2nn(C)cc12)[C@H]1CNC(=O)C1 [Example 36] | 35.2 µM
C[C@@H](Oc1nc(-c2ccc3c(c2)CN(C)CC3)cc2nn(C)cc12)[C@H]1CNC(=O)C1 [Example 75] | 8.54 µM
C[C@@H](Oc1nc(-c2cnn(C3CCOCC3)c2)cc2nn(C)cc12)[C@H]1CNC(=O)C1 [Example 64] | > 50 µM
C[C@@H](Oc1nc(-c2ccc(C(F)(F)F)nc2)cc2nn(C)cc12)[C@H]1CNC(=O)C1 [Example 61] | > 50 µM

Tell me its IC50 given C[C@@H](Oc1nc(-c2cnn(C3CCC(F)(F)CC3)c2)cc2nn(C)cc12)[C@H]1CNC(=O)C1 [Example 10] as the entry.
36 µM

---

Listed here are compounds together with their documented IC50.
biological target: Recombinant human Aurora B (amino acids 1-344) (Homo sapiens (Human)); assay: Aurora B kinase test (ADP Glo luminescence); format: biochemical; settings: Table 1; read-out: AURB-inhibition IC50-value

compound | IC50
C[C@@H](Oc1cc(-c2cnn(C(C)(C)C)c2)cc2nn(C)cc12)[C@H]1CNC(=O)C1 [Example 18] | > 50 µM

Attention now shifts to the item below.
Tell me its IC50 given C[C@@H](Oc1cc(-c2cnc3ccc(C#N)cn23)cc2nn(C)cc12)[C@H]1CNC(=O)C1 [Example 43] as the entry.
> 50 µM

---

target: Recombinant human Aurora B (amino acids 1-344) (Homo sapiens (Human), UniProt Q96GD4); assay: Aurora B kinase test (ADP Glo luminescence); type: biochemical; settings: Table 1; read-out: AURB-inhibition IC50-value
Sequence (Q96GD4 whole entry, the tested form may be a part): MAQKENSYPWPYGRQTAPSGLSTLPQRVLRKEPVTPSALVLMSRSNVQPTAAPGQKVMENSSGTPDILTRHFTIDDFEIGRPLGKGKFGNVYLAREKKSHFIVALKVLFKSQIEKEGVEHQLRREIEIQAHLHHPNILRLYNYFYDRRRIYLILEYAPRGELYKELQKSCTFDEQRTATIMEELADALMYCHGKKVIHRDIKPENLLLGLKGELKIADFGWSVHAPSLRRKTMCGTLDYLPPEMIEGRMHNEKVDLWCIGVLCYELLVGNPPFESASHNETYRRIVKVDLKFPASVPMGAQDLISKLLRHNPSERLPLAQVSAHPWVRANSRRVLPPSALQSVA
endpoint-label: IC50

molecule | endpoint-label | test-value
C[C@@H](Oc1nc(-c2cnn(C3CCNCC3)c2)cc2nn(C)cc12)[C@H]1CNC(=O)C1 [Example 9] | IC50 | > 50 µM
C[C@@H](Oc1nc(-c2ccc3c(c2)CCN(C)CC3)cc2nn(C)cc12)[C@H]1CNC(=O)C1 [Example 55] | IC50 | > 50 µM

Tell me its IC50 given COCCn1cc(-c2cc3nn(C)cc3c(O[C@H](C)[C@H]3CNC(=O)C3)n2)cn1 [Example 57] as the entry.
> 50 µM
